Hey, just so you know, these numbers are from PubChem BioAssay (EPA / NIEHS).

Read-out: xenobiotic metabolism (CYP1A1), CYP1A1 (gene 1543)
ASSAY_NAME: CLD_CYP1A1_6hr: CellzDirect (CLD) Gene Expression Assay for xenobiotic metabolism (CYP1A1) at 6 hours (AID 2283661)
Results filed as inconclusive are left out. The source made the active and inactive calls. The calls were made as follows: active = hit-call score of the fitted dose curve at least 0.9, where 1 is the maximum; inconclusive = response in the unintended direction; inactive = score below 0.9.
Possible outcomes: 1 (active), 0 (inactive)

CCSC(=O)N1CCCCCC1
0
CCNC(=O)NC(=O)C(C#N)=NOC
0
OC(c1ccc(Cl)cc1)(c1ccc(Cl)cc1)C(Cl)(Cl)Cl
0
CCN(CC)C(=O)C(C)Oc1cccc2ccccc12 (stereo unspecified)
1
COC(=O)c1c(C(F)F)nc(C(F)(F)F)c(C2=NCCS2)c1CC(C)C
1
COC(=O)N(C(=O)N1CO[C@@]2(C(=O)OC)Cc3cc(Cl)ccc3C2=N1)c1ccc(OC(F)(F)F)cc1
1
CCOc1nc(F)cc2nc(S(=O)(=O)Nc3c(Cl)cccc3Cl)nn12
0
COC(=O)NC(=S)Nc1ccccc1NC(=S)NC(=O)OC
1
Cn1c(-c2ccccc2)cc(-c2ccccc2)[n+]1C
0
CCNP(=S)(OC)O/C(C)=C/C(=O)OC(C)C (stereo unspecified)
1
CCCCC(O)(Cn1cncn1)c1ccc(Cl)cc1Cl (stereo unspecified)
1

###

ASSAY_NAME: ATG_AP_1_CIS: Attagene CIS-FACTORIAL HepG2 Assay for human Activator Protein 1 (AP-1) (AID 2282931)
ASSAY_SETUP: HepG2 Attagene cis-factorial AP-1 reporter mRNA; actives raise or lower the signal
Activity calls are given as the source filed them. How the source made its calls: active means hit-call score of the fitted dose curve at least 0.9, where 1 is the maximum; inactive means score below 0.9.
Outcomes: label 1 (active), label 0 (inactive)

N#CN=C1SCCN1Cc1ccc(Cl)nc1
label 0
CS(=O)(=O)c1cc(C(F)(F)F)ccc1C(=O)c1cnoc1C1CC1
label 1
Cc1ccc(N=CN(C)C=Nc2ccc(C)cc2C)c(C)c1
label 0
CCSC(=O)N1CCCCCC1
label 0
COP(=S)(OC)Oc1ccc([N+](=O)[O-])c(C)c1
label 1

###

ASSAY_NAME: CCTE_Simmons_CellTiterGLO_HEK293T: Viability Assessment in CCTE's Assays for Thyroperoxidase (TPO) Inhibition, Simmons Lab (AID 2283665)
Inconclusive results are not listed. The source made the active and inactive calls. Rule for the calls: active = hit-call score of the fitted dose curve at least 0.9, where 1 is the maximum; inconclusive = response in the unintended direction; inactive = score below 0.9.
Classes used: TRUE = active, FALSE = inactive

CCOP(=O)(OCC)Oc1nc(Cl)c(Cl)cc1Cl
TRUE
Clc1nc(Cl)nc(Nc2ccccc2Cl)n1
TRUE
O=c1n(Cl)c(=O)n(Cl)c(=O)n1Cl
FALSE
CCN(CC)c1nc(C)cc(OP(=S)(OC)OC)n1
TRUE
Cc1cnc(C2=NC(C)(C(C)C)C(=O)N2)c(C(=O)O)c1 (stereo not given)
FALSE

###

Read-out: Lipoprotein lipase (LPL), LPL (gene 4023)
ASSAY_NAME: LTEA_HepaRG_LPL: Life Technologies and Expression Analysis (LTEA) Assay for Lipoprotein lipase (LPL) using HepaRG (AID 2283515)
ASSAY_SETUP: mRNA level, 48 h; actives raise or lower the signal
The source made the active and inactive calls. The calls were made as follows: active = hit-call score of the fitted dose curve at least 0.9, where 1 is the maximum; inactive = score below 0.9.
Classes used: TRUE = active, FALSE = inactive

COc1ccc(-c2ccccc2)cc1NNC(=O)OC(C)C
FALSE
COCC(=O)N(c1c(C)cccc1C)C(C)C(=O)OC (stereo not given)
FALSE
CNC(=O)Oc1cccc2ccccc12
FALSE
CC(C)Oc1cccc(NC(=O)c2ccccc2C(F)(F)F)c1
FALSE
CCCCC(C#N)(Cn1cncn1)c1ccc(Cl)cc1 (stereo not given)
FALSE
COC(=O)c1c(C(F)F)nc(C(F)(F)F)c(C2=NCCS2)c1CC(C)C
FALSE
Nc1c(Cl)c(F)nc(OCC(=O)O)c1Cl
FALSE
Cc1nc(N(C)C)nc(OC(=O)N(C)C)c1C
FALSE
CCOc1nc(F)cc2nc(S(=O)(=O)Nc3c(Cl)cccc3Cl)nn12
FALSE
CC(C)Nc1nc(Cl)nc(NC(C)C)n1
FALSE
CCOP(=O)(OCC)Oc1nc(Cl)c(Cl)cc1Cl
TRUE
CC1(C)C(C(=O)OC(C#N)c2cccc(Oc3ccccc3)c2)C1(C)C (stereo not given)
FALSE
CCOc1cc(C(C)(C)C)ccc1C1COC(c2c(F)cccc2F)=N1 (stereo not given)
TRUE
Cc1c(COC(=O)[C@@H]2[C@H](/C=C(\Cl)C(F)(F)F)C2(C)C)cccc1-c1ccccc1
FALSE
COCc1cnc(C2=NC(C)(C(C)C)C(=O)N2)c(C(=O)O)c1 (stereo not given)
FALSE
